test: In vivo stability in rat blood and urine; details: rat blood
Metric: % Intact 18F-compound, Blood 1 h (%)
Number only, in %; omit the unit.

COc1cc(OCCF)cc(OC)c1NC(=O)c1ccc(Oc2cc3c(cc2C)CCC3(C)C)o1 [[^18F]SB-004-RS] | 97.5
COc1cc(OCCF)cc(OC)c1NC(=O)c1ccc(Cc2cc3c(cc2C)CCCC3(C)C)o1 [[^18F]SB-003-RS] | 88.1
COc1cc(NCCCF)cc(OC)c1NC(=O)c1ccc(Oc2cc3c(cc2C)CCC3(C)C)o1 [[^18F]SB-002-RS] | 97

# get_value(readout='% Intact 18F-compound, Blood 1 h', item= COc1cc(NCCCF)cc(OC)c1NC(=O)c1ccc(Cc2cc3c(cc2C)CCCC3(C)C)o1 [[^18F]SB-001-RS] )
81

----------
assay: Stability in rat serum at 37° C., radio-HPLC; type: in vitro ADME; details: rat serum, 37° C., 1 h
Metric: % Intact 18F-compound, Serum 1 h

COc1cc(OCCF)cc(OC)c1NC(=O)c1ccc(Oc2cc3c(cc2C)CCC3(C)C)o1 [[^18F]SB-004-RS] | >95%
COc1cc(OCCF)cc(OC)c1NC(=O)c1ccc(Cc2cc3c(cc2C)CCCC3(C)C)o1 [[^18F]SB-003-RS] | >95%
COc1cc(NCCCF)cc(OC)c1NC(=O)c1ccc(Cc2cc3c(cc2C)CCCC3(C)C)o1 [[^18F]SB-001-RS] | >95%

Here is another molecule to look at.
Requested field: % Intact 18F-compound, Serum 1 h. Item: COc1cc(NCCCF)cc(OC)c1NC(=O)c1ccc(Oc2cc3c(cc2C)CCC3(C)C)o1 [[^18F]SB-002-RS]
99.1%

----------
Entries annotated with measured logP
assay: Octanol/water partition coefficient, PBS (pH 7.4)/n-octanol; assay type: physicochemical; conditions: phosphate-buffered saline (pH 7.4)/n-octanol, n=3

COc1cc(NCCCF)cc(OC)c1NC(=O)c1ccc(Cc2cc3c(cc2C)CCCC3(C)C)o1 [[^18F]SB-001-RS] | 1.43
COc1cc(OCCF)cc(OC)c1NC(=O)c1ccc(Oc2cc3c(cc2C)CCC3(C)C)o1 [[^18F]SB-004-RS] | 1.82

GET /values?readout=logP&item= COc1cc(NCCCF)cc(OC)c1NC(=O)c1ccc(Oc2cc3c(cc2C)CCC3(C)C)o1 [[^18F]SB-002-RS]
1.49

logP lookup needed for COc1cc(OCCF)cc(OC)c1NC(=O)c1ccc(Cc2cc3c(cc2C)CCCC3(C)C)o1 [[^18F]SB-003-RS] , thanks.
1.68

----------
target: human type I GnRH receptor (Homo sapiens, UniProt P30968)
Sequence (P30968 whole entry): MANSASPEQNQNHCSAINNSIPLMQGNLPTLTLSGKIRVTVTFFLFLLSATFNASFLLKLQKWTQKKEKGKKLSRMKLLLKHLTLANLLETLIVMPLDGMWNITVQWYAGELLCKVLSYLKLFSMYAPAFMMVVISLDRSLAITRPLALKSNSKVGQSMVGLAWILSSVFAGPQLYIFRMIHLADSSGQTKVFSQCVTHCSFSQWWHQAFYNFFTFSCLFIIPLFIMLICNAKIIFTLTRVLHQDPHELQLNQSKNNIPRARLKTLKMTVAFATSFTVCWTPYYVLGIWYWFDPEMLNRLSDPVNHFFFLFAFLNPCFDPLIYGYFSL
Metric: Ki (nM)
Give your result in nM as a bare value.

Test system human type I GnRH receptor (Homo sapiens, UniProt P30968); read-out Ki; what value for COc1cc(OCCF)cc(OC)c1NC(=O)c1ccc(Cc2cc3c(cc2C)CCCC3(C)C)o1 [SB-003-RS] ?
0.6

----------
assay: Stability in rat serum at 37° C., radio-HPLC; format: in vitro ADME; conditions: rat; serum; hydrolysis of the amide bond; read-out: Serum stability t1/2
Metric: half-life at 11.1 MBq/mL

Quick check: half-life at 11.1 MBq/mL of COc1nc([18F])nc(OC)c1NC(=O)c1ccc(Oc2cc3c(cc2C)CCC3(C)C)o1 [[^18F]SB7-65-19] ?
< 30 min
